Every entry's value here was drawn from patent US20240376151A1.

tested on: Expi293 cells; test: Measurement of the Cell Association of Helicons (mass spectrometry quantification in cells after treatment and wash); assay type: cell-based; conditions: percentage of Helicons in cells after treatment and wash, 22 hours, n = 2, mean ± SD
Helicon in cells ± SD (%) below 5% gives FALSE; Helicon in cells ± SD (%) at or above it gives TRUE.

Lookup: Hi team, for CCCC[C@H](NC(=O)[C@@H](NC(C)=O)C(C)C)C(=O)N[C@@H](CCC(N)=O)C(=O)N[C@]1(C)CCCCCCC=CCCC[C@@](C)(C(=O)N[C@@H](Cc2c[nH]cn2)C(=O)N[C@@H](Cc2ccc(O)cc2)C(=O)N[C@H](C(N)=O)C(C)C)NC(=O)[C@H]([C@@H](C)CC)NC(=O)[C@H](Cc2ccccc2)NC(=O)[C@H](C)NC(=O)[C@H](C)NC(=O)[C@H](CCC(N)=O)NC(=O)[C@H](Cc2ccc(O)cc2)NC1=O (single isomer, unassigned) [FP07872] , is the recorded Helicon in cells ± SD (%) at or above 5%?
Found: TRUE
